Compiled notes: published IC50 values involving Dihydroorotate dehydrogenase (quinone), mitochondrial (Homo sapiens).
Label satisfied when IC50 is strictly below 3 µM; otherwise label not satisfied.

Sample answers from the record:
• CCC(C)Oc1cc(NC(=O)/C(C#N)=C(/C)O)c(F)cc1-c1ccccc1Cl (stereo unspecified) = satisfied
• O=C(O)C1=C(C(=O)Nc2c(F)cc(-c3ccccc3F)cc2F)CCC1 = satisfied
• Cc1cc(N)n2nc(SCc3ccccc3)nc2n1 = not satisfied
• CCCCOC(=O)/C(C#N)=C1\SCC(=O)N1c1ccccc1F = not satisfied

Is it true that IC50 reported for COc1cccc2c(C(=O)O)c(O)c(-c3ccc(Cl)cc3)nc12 is less than 3 µM?
not satisfied

Is it true that IC50 reported for CCOC(=O)c1sc(Nc2ccc(Cl)c(C(F)(F)F)c2)nc1N is less than 3 µM?
not satisfied

Is it true that IC50 reported for CC/C(O)=C(\C#N)C(=O)Nc1ccc(-c2cccc(F)c2)c(C(=O)OC)c1 is less than 3 µM?
satisfied

Is it true that IC50 reported for COC(=O)/C(C#N)=C1\SCCN1c1ccccc1F is less than 3 µM?
not satisfied

Is it true that IC50 reported for Cc1nn(C)c(Nc2ccc(C(F)(F)F)cc2)c1C#N is less than 3 µM?
not satisfied

Is it true that IC50 reported for Cc1n[nH]c(Nc2ccc(C(C)(C)C)cc2)c1C#N is less than 3 µM?
not satisfied
